Examples of compounds with documented pIC50 follow.
# experimental.target: Muscarinic acetylcholine receptor M3 (Homo sapiens, UniProt P20309)
# Sequence (P20309 whole entry): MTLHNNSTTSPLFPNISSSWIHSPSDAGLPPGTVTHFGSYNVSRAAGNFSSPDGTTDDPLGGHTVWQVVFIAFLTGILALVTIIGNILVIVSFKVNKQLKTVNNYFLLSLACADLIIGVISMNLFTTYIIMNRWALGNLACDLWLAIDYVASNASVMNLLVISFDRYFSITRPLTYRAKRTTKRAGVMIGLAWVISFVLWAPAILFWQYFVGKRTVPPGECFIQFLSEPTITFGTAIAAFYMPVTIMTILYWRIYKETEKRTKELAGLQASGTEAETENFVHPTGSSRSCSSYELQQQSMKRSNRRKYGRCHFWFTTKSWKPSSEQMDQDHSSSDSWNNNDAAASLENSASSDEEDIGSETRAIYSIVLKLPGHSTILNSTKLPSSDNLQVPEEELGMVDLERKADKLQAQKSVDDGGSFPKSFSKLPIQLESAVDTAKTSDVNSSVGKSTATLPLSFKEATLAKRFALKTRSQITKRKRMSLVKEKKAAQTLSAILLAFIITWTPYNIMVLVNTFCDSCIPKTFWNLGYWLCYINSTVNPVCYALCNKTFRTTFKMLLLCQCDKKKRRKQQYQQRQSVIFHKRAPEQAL
# test: Antagonist activity at human recombinant muscarinic M3 receptor expressed in CHO cells co-transfected with Gqi5 in presence of EC80 acetylcholine by calcium mobilization assay
pIC50: −log10 of the molar value.
attribute.measured: pIC50

INSERT INTO assay_data (structure_smiles, attribute_measured, result_number) VALUES
  ('Cc1noc(C)c1S(=O)(=O)N1CCN(c2ccc(N3CCCC(C)(C)C3)nn2)CC1', 'pIC50', 6.11),
  ('C[C@H]1CCCCN1c1ccc(N2CCN(S(=O)(=O)c3ccccc3Cl)CC2)nn1', 'pIC50', 5.15);

====

# experimental.target: Muscarinic acetylcholine receptor M1 (Rattus norvegicus, UniProt P08482)
# Sequence (P08482 whole entry): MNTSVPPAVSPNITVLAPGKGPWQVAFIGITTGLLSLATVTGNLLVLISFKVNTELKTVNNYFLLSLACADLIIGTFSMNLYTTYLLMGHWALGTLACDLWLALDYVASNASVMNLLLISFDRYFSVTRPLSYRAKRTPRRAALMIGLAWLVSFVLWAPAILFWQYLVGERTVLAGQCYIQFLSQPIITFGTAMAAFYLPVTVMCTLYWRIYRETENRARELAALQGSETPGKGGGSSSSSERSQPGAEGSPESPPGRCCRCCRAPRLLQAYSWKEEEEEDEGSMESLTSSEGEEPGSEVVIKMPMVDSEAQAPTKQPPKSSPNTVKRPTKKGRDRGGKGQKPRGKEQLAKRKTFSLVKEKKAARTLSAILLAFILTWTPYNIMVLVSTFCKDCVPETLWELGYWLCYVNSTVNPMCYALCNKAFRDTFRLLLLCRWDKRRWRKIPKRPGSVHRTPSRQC
# test: Antagonist activity at rat muscarinic M1 receptor by calcium mobilization assay
pIC50: −log10 of the molar value.
attribute.measured: pIC50

INSERT INTO results (structure_smiles, result_number) VALUES
  ('C[C@H]1CCCCN1c1ccc(N2CCN(S(=O)(=O)c3ccccc3Cl)CC2)nn1', 5.85);

====

Examples of molecules with documented IC50 follow.
# experimental.target: Muscarinic acetylcholine receptor M4 (Homo sapiens)
# Sequence (P08173 whole entry): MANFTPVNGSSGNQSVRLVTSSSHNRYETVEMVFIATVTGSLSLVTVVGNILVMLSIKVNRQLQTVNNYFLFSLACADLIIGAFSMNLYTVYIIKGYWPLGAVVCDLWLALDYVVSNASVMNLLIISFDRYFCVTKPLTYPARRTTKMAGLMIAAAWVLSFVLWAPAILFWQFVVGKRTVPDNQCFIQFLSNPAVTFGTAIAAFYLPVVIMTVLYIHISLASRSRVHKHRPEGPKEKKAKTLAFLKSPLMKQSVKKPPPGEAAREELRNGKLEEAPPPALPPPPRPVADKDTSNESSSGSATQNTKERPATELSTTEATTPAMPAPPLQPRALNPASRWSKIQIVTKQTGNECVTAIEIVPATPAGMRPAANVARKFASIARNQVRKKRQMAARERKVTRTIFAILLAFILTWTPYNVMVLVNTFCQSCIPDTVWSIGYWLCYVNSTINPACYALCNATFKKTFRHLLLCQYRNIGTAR
# test: Antagonist activity at human recombinant muscarinic M4 receptor expressed in CHO cells co-transfected with Gqi5 in presence of EC80 acetylcholine by calcium mobilization assay
# Format: functional, cell-based
# test.conditions: read-out: pIC50 (converted)
attribute.measured: IC50 (nM)

INSERT INTO measurements (structure_smiles, experimental_target, result_number) VALUES
  ('Cc1noc(C)c1S(=O)(=O)N1CCN(c2ccc(N3CCCCCC3)nn2)CC1', 'Muscarinic acetylcholine receptor M4 (Homo sapiens)', 407),
  ('O=S(=O)(c1ccccc1Cl)N1CCN(c2ccc(N3CCCCC3)nn2)CC1', 'Muscarinic acetylcholine receptor M4 (Homo sapiens)', 5370),
  ('O=S(=O)(c1ccc2c(c1)OCO2)N1CCN(c2ccc(N3CCCCC3)nn2)CC1', 'Muscarinic acetylcholine receptor M4 (Homo sapiens)', 661);

====

# Test system: Plasma
# test: Protein binding in human plasma
# Format: ADME, cell-free
attribute.measured: PPB

INSERT INTO measurements (structure_smiles, result) VALUES
  ('C[C@H]1CCCCN1c1ccc(N2CCN(S(=O)(=O)c3ccccc3Cl)CC2)nn1', 'Active'),
  ('COc1ccccc1S(=O)(=O)N1CCN(c2ccc(N3CCCC[C@@H]3C)nn2)CC1', 'Active'),
  ('Cc1noc(C)c1S(=O)(=O)N1CCN(c2ccc(N3CCCC[C@@H]3C)nn2)CC1', 'Active');
